Biological target: T1, AfPiwi (UniProt O28951 1-427)
T1 sequence: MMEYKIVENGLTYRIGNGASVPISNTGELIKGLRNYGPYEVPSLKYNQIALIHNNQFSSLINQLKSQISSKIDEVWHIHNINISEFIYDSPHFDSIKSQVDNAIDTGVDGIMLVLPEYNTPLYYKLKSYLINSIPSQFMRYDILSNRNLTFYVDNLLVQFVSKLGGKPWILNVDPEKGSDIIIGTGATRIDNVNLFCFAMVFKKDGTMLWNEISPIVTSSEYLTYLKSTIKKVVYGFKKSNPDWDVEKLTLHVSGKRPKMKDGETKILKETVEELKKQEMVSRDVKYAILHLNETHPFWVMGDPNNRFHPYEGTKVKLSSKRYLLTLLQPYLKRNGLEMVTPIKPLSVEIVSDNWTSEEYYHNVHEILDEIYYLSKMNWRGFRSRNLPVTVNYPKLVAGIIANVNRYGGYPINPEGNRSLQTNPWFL
Experiment: ITC; target into AfPiwi-guide; 10 mM Mg2+; isolation 7520 nM; ITC: 50 mM Tris pH 7.5, 150 mM KCl, 5% glycerol, 10 mM MgCl2, 1 mM DTT, 20 C; guide 3.5-24 uM in cell with 3-4 fold excess AfPiwi, target in syringe
Settings: protein: recombinant; one mismatch
measurement_label: pKd
Give bare numbers, as −log10 of the molar value.

Query block: Form field: reported pKd of Fig 5E DNA mismatch (dsDNA, guide 5' phosphate) DNA 1: TGTAGGTT DNA 2: AACCTGCA
Result block: 6.34
